// reported ΔTm per item
# system under test: Fibroblast growth factor receptor 3 (Homo sapiens) (UniProt P22607)
# Sequence (P22607 23-806 limits assumed): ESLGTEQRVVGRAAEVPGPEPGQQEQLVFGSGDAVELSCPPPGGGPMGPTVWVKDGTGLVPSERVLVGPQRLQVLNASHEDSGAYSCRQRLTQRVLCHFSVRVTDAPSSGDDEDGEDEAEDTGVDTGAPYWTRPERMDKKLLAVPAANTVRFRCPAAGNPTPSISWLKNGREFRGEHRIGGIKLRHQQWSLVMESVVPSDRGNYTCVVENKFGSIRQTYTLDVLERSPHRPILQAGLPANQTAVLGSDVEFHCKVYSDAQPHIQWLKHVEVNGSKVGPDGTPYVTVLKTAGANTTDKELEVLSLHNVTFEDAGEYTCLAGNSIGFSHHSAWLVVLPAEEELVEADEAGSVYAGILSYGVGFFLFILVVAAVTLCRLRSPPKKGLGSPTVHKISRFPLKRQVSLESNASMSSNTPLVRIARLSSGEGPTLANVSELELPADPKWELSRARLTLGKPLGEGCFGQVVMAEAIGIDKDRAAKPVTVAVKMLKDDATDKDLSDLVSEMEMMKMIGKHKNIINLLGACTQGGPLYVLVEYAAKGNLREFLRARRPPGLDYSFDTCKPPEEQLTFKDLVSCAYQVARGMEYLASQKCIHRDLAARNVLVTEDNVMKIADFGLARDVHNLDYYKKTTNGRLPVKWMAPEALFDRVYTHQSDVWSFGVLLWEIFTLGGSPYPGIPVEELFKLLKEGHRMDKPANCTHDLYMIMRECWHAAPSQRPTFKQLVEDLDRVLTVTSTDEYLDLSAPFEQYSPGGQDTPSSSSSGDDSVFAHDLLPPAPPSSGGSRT
# test settings: Compound concentration 20.0 uM, Protein concentration 2.0 uM, Result type QC Liability
# Description: Thermal Shift Assay. Domain: start/stop: P449-E759

Solved cases below.
{"molecule smiles": "Cc1cc(Cn2c(N3CC4(CNC4)C3)nc3c(N4CCN(C)CC4)cc(Cl)cc32)cc(C)c1F", "system under test": "Fibroblast growth factor receptor 3 (Homo sapiens) (UniProt P22607)", "endpoint name": "ΔTm", "readout value": "0.86 °C"}
{"molecule smiles": "CCN(C(=O)CO)[C@H]1CN(/C(=N\\C#N)Nc2cccc(OC(F)F)c2)N=C1c1ccc(Cl)c(Cl)c1", "system under test": "Fibroblast growth factor receptor 3 (Homo sapiens) (UniProt P22607)", "endpoint name": "ΔTm", "readout value": "0.47 °C"}
{"molecule smiles": "CNC(=O)COc1cc2cc(Nc3nc(N4C[C@H](C)C[C@H](C)C4)ncc3Cl)ccc2n(C)c1=O", "system under test": "Fibroblast growth factor receptor 3 (Homo sapiens) (UniProt P22607)", "endpoint name": "ΔTm", "readout value": "0.62 °C"}
{"molecule smiles": "Cc1cn([C@H](C)CC#N)c(=O)c2cc(Cn3nc(C(F)F)cc3Cl)nn12", "system under test": "Fibroblast growth factor receptor 3 (Homo sapiens) (UniProt P22607)", "endpoint name": "ΔTm", "readout value": "0.78 °C"}
{"molecule smiles": "CCOc1cc(CC(=O)N[C@@H](CC(C)C)c2ccccc2N2CCCCC2)ccc1C(=O)O", "system under test": "Fibroblast growth factor receptor 3 (Homo sapiens) (UniProt P22607)", "endpoint name": "ΔTm", "readout value": "0.18 °C"}
{"molecule smiles": "C[C@@H](Oc1cc(-n2cnc3ccc(OC4CCN(C)CC4)cc32)sc1C(N)=O)c1ccccc1Cl", "system under test": "Fibroblast growth factor receptor 3 (Homo sapiens) (UniProt P22607)", "endpoint name": "ΔTm", "readout value": "3.37 °C"}
{"molecule smiles": "Cn1nccc1-c1ccc(Sc2cccc(C3(C(N)=O)CCOCC3)c2)cc1", "system under test": "Fibroblast growth factor receptor 3 (Homo sapiens) (UniProt P22607)", "endpoint name": "ΔTm", "readout value": "0.47 °C"}
{"molecule smiles": "COc1cc2ncnc(Nc3ccc(F)c(Cl)c3)c2cc1OCCN(C)C[C@H](C)O", "system under test": "Fibroblast growth factor receptor 3 (Homo sapiens) (UniProt P22607)", "endpoint name": "ΔTm", "readout value": "1.03 °C"}
{"molecule smiles": "Nc1ncnc2[nH]c(-c3ccccc3)nc12", "system under test": "Fibroblast growth factor receptor 3 (Homo sapiens) (UniProt P22607)", "endpoint name": "ΔTm", "readout value": "1.78 °C"}
{"molecule smiles": "COc1cc(N(C)c2ccnc3ccc(C(F)(F)F)cc23)cc(OC)c1OC", "system under test": "Fibroblast growth factor receptor 3 (Homo sapiens) (UniProt P22607)", "endpoint name": "ΔTm", "readout value": "0.76 °C"}

Task: Sample COc1cccc(CNc2ccc(S(=O)(=O)Nc3nc4ccccc4s3)cc2)c1O — what was its ΔTm?
Result: 1.44 °C

---

# system under test: Fibroblast growth factor receptor 3 (Homo sapiens)
# test settings: Compound concentration 20.0 uM, Protein concentration 2.0 uM, Result type QC Liability
Label condition met when ΔTm >= 0.6 °C; otherwise condition not met.

# example entries with known answers
{"compound": "O=C(O)c1cc2cc(Cc3cccnc3)ccc2o1", "assigned label": "condition met"}
{"compound": "CC1(C)C[C@@H]1C(=O)N/C(=C\\CCCCSC[C@H](N)C(=O)O)C(=O)O", "assigned label": "condition not met"}
{"compound": "CN(C(=O)c1ccccc1)c1ccc2c(c1)[nH]/c(=N\\C(=O)c1ccc(Br)s1)n2CCC(N)=O", "assigned label": "condition met"}
{"compound": "O=C(Nc1cccc(Nc2nccc(Nc3cccc(C(F)(F)F)c3)n2)c1)C1CC1", "assigned label": "condition met"}
{"compound": "CS(=O)(=O)c1cc(C2(NC(=O)c3cncc4c3cnn4-c3ccc(F)cc3)CC2)ccn1", "assigned label": "condition met"}
{"compound": "CN(C(=O)CCOCCOCCOCCOCCNc1cccc2c1C(=O)N(C1CCC(=O)NC1=O)C2=O)[C@H]1CC[C@@]2(C)[C@@H](CC[C@@H]3[C@@H]2CC[C@]2(C)[C@@H](c4ccc5ccncc5c4)CC[C@@H]32)C1 (stereo partly drawn)", "assigned label": "condition met"}
{"compound": "COc1cc(-c2cn(C)c(=O)c3cnccc23)cc(OC)c1CN(C)C", "assigned label": "condition not met"}
{"compound": "CC(C)Oc1ccc(Cc2ccc(NC3=NCCN3)cc2)cc1", "assigned label": "condition not met"}

Task: # bool: ΔTm of CC(=O)Nc1c(F)cc(C(=O)N[C@H]2CC[C@H](O)CC2)cc1O[C@@H](C)c1ccccc1 >= 0.6 °C
Result: condition not met

Task: # bool: ΔTm of COc1cc(-c2cncc(-c3ccc(N4CCN(C(C)C)CC4)cc3)c2C)cc(F)c1C(=O)N1CCCC1 >= 0.6 °C
Result: condition met

Task: # bool: ΔTm of CCCCC[C@@](C)(O)/C=C/[C@H]1C(=O)CC(O)C1C/C=C\CCCC(=O)O (stereo partly drawn) >= 0.6 °C
Result: condition not met

Task: # bool: ΔTm of CNC(=O)c1cc(C(=O)N[C@H]2[C@@H]3COC[C@@H]32)cc2c1O[C@@H](CF)[C@@H]2c1ccccc1 >= 0.6 °C
Result: condition not met
